# System: HCT-15 colon
# ASSAY: NCI tumour cell line growth inhibition, 48 h
Catalogue of compounds with associated TGI
PROPERTY_NAME: TGI

1) Cc1cc2c(C=O)[nH]nc2c(C#N)c1C    > 100 µM
2) Cc1c(OCc2cccc3ccccc23)ccc2c(=O)cc(S)oc12    > 100 µM
3) CSc1c(C#N)c(=O)n(N)c2n[nH]c(C)c12    > 100 µM
4) C/C(=N\O)c1ccc(Nc2cc(-c3ccccc3)nc3c(O)cccc23)cc1    26.4 µM
5) O=C1OCC(CN2CCC(n3c(=O)[nH]c4ccccc43)CC2)=C1c1ccccc1    54.9 µM
6) COc1cc(/C=C/C(=O)c2ccc(SC)cc2)cc(OC)c1OC    14.4 µM
7) COc1ccc2c(c1)cn1c3ccc(OC)cc3[nH]c(=O)c21    1.11 µM
8) Nc1[nH]nc2c1Cc1c(n(Cc3ccc(Cl)cc3)c3ccccc13)C(=O)N2    16.8 µM
9) CC/C(=C(/c1ccc(Cl)cc1)c1ccc(OCCCN(C)C)cc1)c1ccc(OC)cc1    5.08 µM
10) FC1(F)SC2CCCCCCCCCCC2C1(F)F (configuration not stated)    > 100 µM
11) O=C(CN1CCOCC1)c1ccc2c(c1)oc(=O)n2CCN1CCCCC1    > 100 µM
12) O=CN/C=C\c1cc(O)ccc1O    23.7 µM
13) O=C(c1ccccc1)C(c1ccccc1)C1(O)C(=O)Nc2ccc(Br)cc21 (configuration not stated)    > 100 µM
14) c1ccc(Oc2cnc3ccccc3n2)cc1    > 100 µM
15) O=C(/C=C/c1ccco1)c1cccc(Nc2nc(Nc3ccccc3)nc(Nc3ccccc3)n2)c1    > 100 µM
16) O=Cc1ccc(Oc2c3ccccc3nc3ccccc23)cc1    19.5 µM
17) Cn1cc(C2=C(c3cn(CCCN/C(N)=N\[N+](=O)[O-])c4ccccc34)C(=O)NC2=O)c2ccccc21    > 25 µM
18) CCOC(=O)C(C(=O)OCC)C(=S)NC1OC(COC(C)=O)C(OC(C)=O)C(OC(C)=O)C1OC(C)=O (configuration not stated)    > 100 µM
19) CC(C)N=C(NC#N)NS(=O)(=O)c1cnccc1NC1CCCCCCC1    > 100 µM
20) CCN(CC)C(=O)N1CN(c2ccccc2)C2(CCN(CCCC3(c4ccc(F)cc4)OCCO3)CC2)C1=O    32.3 µM
21) CCOC(=O)CCNC(=O)c1cc(C)cc2c1Oc1c(cc(C)cc1C(=O)NCCC(=O)OCC)S2    > 100 µM
22) O=c1cc(/C=C/c2ccccc2)c2ccc(O/C(=C\c3ccccc3)c3nc4ccccc4c(=O)o3)cc2o1    > 100 µM

---

Catalogue of compounds with associated TGI
# Tested on: MALME-3M melanoma
# ASSAY: NCI tumour cell line growth inhibition, 48 h
PROPERTY_NAME: TGI (µM)

1) COc1cc(Cl)c(C)cc1NC(=O)c1cc2ccccc2cc1O    10
2) O=c1[nH]nc(-c2ccccc2)c2[nH]c3c(c12)CCCc1ccccc1-3    30.9
3) COc1ccc2c(c1)cn1c3ccc(OC)cc3[nH]c(=O)c21    2.75
4) C=CCOC1=C(OC(C)=O)C(C2COC(C)(C)O2)OC1=O (stereo unspecified)    35.1
5) COc1cc2c(cc1OC)-c1c(c3ccc([N+](=O)[O-])cc3c(=O)n1CCCBr)C2=O    81.1
6) O=C1CN2CCN(CC2)CC(=O)Nc2ccc(cc2)S(=O)(=O)c2ccc(cc2)NC(=O)CN2CCN(CC2)CC(=O)Nc2ccc(cc2)S(=O)(=O)c2ccc(cc2)N1    38.8
7) O=c1c(Br)ccc(Br)cc1Br    4.05
8) O=[N+]([O-])c1cnccc1-n1nnc2ccccc21    45.5
9) Clc1ccc2c(NCCCNCc3ccc4c(c3)OCO4)ccnc2c1    3.48
